Assay Info: AUClast in CD1 mouse at 21 mg/kg, po by UPLC-MS/MS analysis
Type: ADME, organism-based
Parameters: dose 21 mg/kg, time 0 - last, route oral
Condition Context: in vivo
Property Name: AUC(0-t) (ng·h/mL)
Kindly answer with a numeric value in ng·h/mL, unit omitted.

For O=C(C1CCCCC1)N1CC2C3CCC(C4CC34)C2C1 (stereo unspecified) the compound record lists AUC(0-t) as 39.7

* * *

Each entry below carries its measured IC50, system: 11-beta-hydroxysteroid dehydrogenase 1 (Homo sapiens, UniProt P28845).
Sequence (P28845 whole entry): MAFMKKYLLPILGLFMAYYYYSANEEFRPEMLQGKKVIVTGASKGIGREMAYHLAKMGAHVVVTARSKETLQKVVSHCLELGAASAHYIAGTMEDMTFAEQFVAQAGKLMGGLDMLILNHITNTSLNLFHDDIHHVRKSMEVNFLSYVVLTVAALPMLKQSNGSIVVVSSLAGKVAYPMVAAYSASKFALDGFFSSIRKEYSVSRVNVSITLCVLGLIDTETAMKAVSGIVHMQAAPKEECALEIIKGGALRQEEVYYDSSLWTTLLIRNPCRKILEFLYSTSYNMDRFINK
Quick reminder: number only, in nM, skip the unit.

Documented IC50 of O=C(C1CCCCC1)N1CC23CC=CCC2(CC=CC3)C1 (centres undefined) : 40

For this compound ( O=C(C1CCCCC1)N1CC2C3C=CC(C3)C2C1 (centres undefined) ), measured IC50 is 20

// IC50 value for O=C(C1CCCCC1)N1CC2C3C=CC(C4CC34)C2C1 (centres undefined) : 20

O=C(C1CCCCC1)N1CC2C3CCC(CC3)C2C1 (centres undefined) has a reported IC50 of 20

* * *

Assay Info: Drug uptake in CD1 mouse brain at 21 mg/kg, po after 3 hrs by UPLC-MS/MS analysis
Type: ADME, organism-based
Condition Context: read-out: Drug uptake
Property Name: concentration at 3 h (ng/mL)
Supply the numeric figure in ng/mL, leaving out any unit text.

Input O=C(C1CCCCC1)N1CC2C3CCC(C4CC34)C2C1 (stereo unspecified) . Output concentration at 3 h: 1.45

* * *

Record form. Attribute: pIC50. Fill in for each entry.
Target Desc: 11-beta-hydroxysteroid dehydrogenase type 2 (Homo sapiens, UniProt P80365)
Sequence (P80365 whole entry): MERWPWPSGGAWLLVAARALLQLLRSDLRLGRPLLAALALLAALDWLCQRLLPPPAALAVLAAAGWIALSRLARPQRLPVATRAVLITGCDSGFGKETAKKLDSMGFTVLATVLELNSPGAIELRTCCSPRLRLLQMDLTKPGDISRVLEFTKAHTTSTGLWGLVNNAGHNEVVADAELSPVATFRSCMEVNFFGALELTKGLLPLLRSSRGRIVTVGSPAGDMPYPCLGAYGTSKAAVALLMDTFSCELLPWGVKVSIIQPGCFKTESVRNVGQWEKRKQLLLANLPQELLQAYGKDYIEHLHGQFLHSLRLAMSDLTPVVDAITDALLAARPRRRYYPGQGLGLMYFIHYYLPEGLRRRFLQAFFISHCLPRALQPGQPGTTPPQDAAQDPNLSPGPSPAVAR
Assay Info: Inhibition of human full-length 11beta-HSD2 expressed in HEK293 cells using cortisol as substrate after 2 hrs by LC-MS analysis
pIC50: −log10 of the molar value.

Memo: O=C(C1CCCCC1)N1CC2C3C=CC(C4CC34)C2C1 (stereo not given) , reported pIC50: 5.00 to 6.00

Record O=C(C1CCCCC1)N1CC2C3C=CC(C3)C2C1 (stereo not given) . Reported pIC50: > 7.00

The reported value for O=C(C1CCCCC1)N1CC2C3CCC(C3)C2C1 (stereo not given) in terms of pIC50 is > 7.00

What the record says about O=C(C1CCCCC1)N1CC2C3CCC(C4CC34)C2C1 (stereo not given) : pIC50 is > 7.00

The reported pIC50 of the compound O=C(C1CCCCC1)N1CC2C3CCC(CC3)C2C1 (stereo not given) was 6.00 to 7.00
